Data origin, for the record: patent US20250228873A1

- Target system: PP1A (Homo sapiens)
- Construct: purchased Recation Biology Inc
- Sequence (P62136 whole entry): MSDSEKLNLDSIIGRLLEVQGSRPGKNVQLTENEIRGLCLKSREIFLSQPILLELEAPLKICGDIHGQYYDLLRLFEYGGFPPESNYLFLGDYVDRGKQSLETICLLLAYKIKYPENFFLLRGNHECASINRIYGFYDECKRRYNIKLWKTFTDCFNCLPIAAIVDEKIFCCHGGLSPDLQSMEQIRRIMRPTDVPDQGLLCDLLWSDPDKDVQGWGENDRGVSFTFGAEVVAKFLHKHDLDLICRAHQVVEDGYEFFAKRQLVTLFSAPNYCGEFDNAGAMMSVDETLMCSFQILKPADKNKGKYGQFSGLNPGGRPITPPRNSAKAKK
- Run description: Phosphatase panel, DiFMUP fluorescence assay
- Format: biochemical
- Assay conditions: Table 5B; read-out: Compound IC50 (M) PP1A
Endpoint: IC50

compound="CC(CCC[C@@H](C)[C@H]1CCC2C3C(CC[C@@]21C)[C@@]1(C)CC[C@H](NCCCNCCCCNCCCN)C[C@@H]1C[C@H]3O)C(=O)O (single isomer, unassigned)" result="> 0.0001 M"

====

- Target system: PTPN11/SHP2-FL(E76K) (Homo sapiens, UniProt Q06124, E76K)
- Sequence (Q06124 2-597 isoform Q06124-1 E76K): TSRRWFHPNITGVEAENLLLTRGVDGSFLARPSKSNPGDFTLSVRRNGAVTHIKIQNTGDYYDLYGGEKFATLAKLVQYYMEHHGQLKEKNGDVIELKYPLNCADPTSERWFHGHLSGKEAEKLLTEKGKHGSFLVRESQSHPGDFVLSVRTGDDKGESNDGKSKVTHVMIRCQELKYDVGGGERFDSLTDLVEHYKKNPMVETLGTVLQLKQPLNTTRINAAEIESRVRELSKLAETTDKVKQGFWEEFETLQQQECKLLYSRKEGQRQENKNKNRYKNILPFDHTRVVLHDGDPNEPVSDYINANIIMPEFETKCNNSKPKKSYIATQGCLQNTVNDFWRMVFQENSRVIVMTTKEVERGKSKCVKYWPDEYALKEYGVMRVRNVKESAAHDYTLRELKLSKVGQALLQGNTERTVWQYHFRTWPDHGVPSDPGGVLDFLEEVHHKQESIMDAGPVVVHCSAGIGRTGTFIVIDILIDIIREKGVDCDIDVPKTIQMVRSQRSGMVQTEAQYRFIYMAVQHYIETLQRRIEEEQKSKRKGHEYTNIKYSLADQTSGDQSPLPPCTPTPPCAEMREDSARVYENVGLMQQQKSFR
- Run description: Phosphatase panel, DiFMUP assay, E76K mutant
pIC50: −log10 of the molar value.
Listed compounds paired with reported pIC50
Endpoint: pIC50

compound="CC(CCC[C@@H](C)[C@H]1CCC2C3C(CC[C@@]21C)[C@@]1(C)CC[C@H](NCCCNCCCCNCCCN)C[C@@H]1C[C@H]3O)C(=O)O (single isomer, unassigned)" result_number=6.53
compound="CC(CCC[C@@H](C)[C@H]1CCC2C3C(CC(O)[C@@]21C)[C@@]1(C)CC[C@H](NCCCNCCCCN)C[C@@H]1C[C@H]3O)C(=O)O (single isomer, unassigned)" result_number=7.37
compound="CC(C)[C@@H](CC[C@@H](C)[C@H]1CC[C@H]2[C@@H]3[C@H](O)C[C@H]4C[C@@H](NCCCNCCCCNCCCN)CC[C@]4(C)[C@H]3CC[C@]12C)OS(=O)(=O)O (single isomer, unassigned)" result_number=6.53
compound="CC(CCC[C@@H](C)[C@H]1CCC2C3C(CC[C@@]21C)[C@@]1(C)CC[C@H](NCCCNCCCCN)C[C@@H]1C[C@H]3O)C(=O)O (single isomer, unassigned)" result_number=6.46
